- System: Cell membrane
- procedure details: Induction of inner membrane permeabilization in wild type Escherichia coli BW25113 assessed as perturbation of proton motive force at 128 ug/ml measured after 10 mins in presence of CCCP and glucose by Di0C2(3) probe based fluorescence assay
- run parameters: escherichia coli bw25113, 10 min, dose 128 µg/ml
measured endpoint: Activity

Look over these answered cases.
[
  {
    "compound": "COc1cccc(COc2cccc3c4c(c(-c5nnco5)cc23)CCC(C)(C)O4)c1",
    "system under test": "Cell membrane",
    "result": "Not Active"
  },
  {
    "compound": "CC1(C)CCc2c(Cn3cnnn3)cc3c(OCc4ccccc4)cccc3c2O1",
    "system under test": "Cell membrane",
    "result": "Not Active"
  },
  {
    "compound": "CC1(C)CCc2c(Cn3cnnn3)cc3c(OCc4ccc(OC(F)(F)F)cc4)cccc3c2O1",
    "system under test": "Cell membrane",
    "result": "Not Active"
  },
  {
    "compound": "C=CC(=O)Nc1ccc(COc2cccc3c4c(c(C(=O)N5CCOCC5)cc23)CCC(C)(C)O4)cc1",
    "system under test": "Cell membrane",
    "result": "Not Active"
  },
  {
    "compound": "CNC(=O)c1ccc(COc2cccc3c4c(c(Cn5cnnn5)cc23)CCC(C)(C)O4)cc1",
    "system under test": "Cell membrane",
    "result": "Not Active"
  },
  {
    "compound": "Cc1ccc(COc2cccc3c4c(c(-c5nnco5)cc23)CCC(C)(C)O4)cc1",
    "system under test": "Cell membrane",
    "result": "Not Active"
  },
  {
    "compound": "C=CC(=O)Nc1ccc(COc2cccc3c4c(c(Cn5cnnn5)cc23)CCC(C)(C)O4)cc1",
    "system under test": "Cell membrane",
    "result": "Not Active"
  },
  {
    "compound": "CC1CN(C(=O)c2cc3c(OCc4ccc(Br)cc4)cccc3c3c2CCC(C)(C)O3)CC(C)O1 (configuration not stated)",
    "system under test": "Cell membrane",
    "result": "Not Active"
  },
  {
    "compound": "COc1cccc(COc2cccc3c4c(c(C(=O)O)cc23)CCC(C)(C)O4)c1",
    "system under test": "Cell membrane",
    "result": "Not Active"
  },
  {
    "compound": "CC1(C)CCc2c(-c3nnco3)cc3c(OCc4ccc([N+](=O)[O-])cc4)cccc3c2O1",
    "system under test": "Cell membrane",
    "result": "Not Active"
  }
]

Inquiry: Recorded Activity for `CC1(C)CCc2c(-c3nnco3)cc3c(OCc4ccc(C#N)cc4)cccc3c2O1` , please?
Reply text: Not Active

Inquiry: Recorded Activity for `CC1(C)CCc2c(Cn3cnnn3)cc3c(OCc4ccc([N+](=O)[O-])cc4)cccc3c2O1` , please?
Reply text: Not Active

----------
- system under test: Multidrug efflux pump subunit AcrB (Escherichia coli (strain K12)) (UniProt P31224)
- Sequence (P31224 whole entry): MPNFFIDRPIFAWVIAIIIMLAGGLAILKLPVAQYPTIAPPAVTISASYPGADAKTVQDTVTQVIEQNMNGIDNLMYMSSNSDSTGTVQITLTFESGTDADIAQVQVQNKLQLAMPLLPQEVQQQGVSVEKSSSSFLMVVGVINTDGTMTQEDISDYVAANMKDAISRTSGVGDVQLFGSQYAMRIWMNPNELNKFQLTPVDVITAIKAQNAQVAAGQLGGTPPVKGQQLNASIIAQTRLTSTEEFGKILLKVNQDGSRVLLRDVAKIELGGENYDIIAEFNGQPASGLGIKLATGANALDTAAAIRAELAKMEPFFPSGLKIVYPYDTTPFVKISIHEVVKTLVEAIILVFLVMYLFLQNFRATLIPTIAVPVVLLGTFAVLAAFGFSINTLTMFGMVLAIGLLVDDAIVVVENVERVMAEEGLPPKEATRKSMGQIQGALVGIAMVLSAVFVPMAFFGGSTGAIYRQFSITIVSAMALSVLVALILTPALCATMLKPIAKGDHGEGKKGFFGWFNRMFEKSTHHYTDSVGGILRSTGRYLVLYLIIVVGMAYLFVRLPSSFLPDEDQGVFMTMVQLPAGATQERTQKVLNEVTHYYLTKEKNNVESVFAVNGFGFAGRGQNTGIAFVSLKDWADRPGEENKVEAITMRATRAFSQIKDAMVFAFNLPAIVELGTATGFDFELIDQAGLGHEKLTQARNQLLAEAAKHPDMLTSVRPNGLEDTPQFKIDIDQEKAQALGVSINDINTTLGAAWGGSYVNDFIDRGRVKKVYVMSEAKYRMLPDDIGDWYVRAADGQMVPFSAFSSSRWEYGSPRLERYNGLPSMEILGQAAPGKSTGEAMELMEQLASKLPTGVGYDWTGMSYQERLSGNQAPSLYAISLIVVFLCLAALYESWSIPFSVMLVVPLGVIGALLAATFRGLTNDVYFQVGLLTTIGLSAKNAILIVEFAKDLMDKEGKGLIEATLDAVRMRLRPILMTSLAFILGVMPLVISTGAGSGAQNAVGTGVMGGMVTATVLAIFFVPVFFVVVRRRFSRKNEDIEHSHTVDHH
- procedure details: Inhibition of AcrB in multidrug-resistant Escherichia coli BW25113 assessed as potentiation of tetraphenylphosphonium-induced antibacterial activity by measuring tetraphenylphosphonium MIC at 8 ug/ml by checkerboard titration method (reference value: 1024 ug/ml)
- run parameters: dose 8.0 µg/ml
MIC values, listed per item
Just the number in µg/mL, nothing appended.

Look over these answered cases.
[
  {
    "compound": "CC1(C)CC(=O)c2ccc(OCCNC3CCCC3)cc2O1",
    "MIC [µg/mL]": 512
  },
  {
    "compound": "CC(C)NCCOc1ccc2c(c1)OC(C)(C)CC2=O",
    "MIC [µg/mL]": 1020
  },
  {
    "compound": "CC1(C)CCc2c(-c3nnco3)cc3c(OCc4ccc(F)cc4)cccc3c2O1",
    "MIC [µg/mL]": 1020
  },
  {
    "compound": "C=CC(=O)Nc1ccc(COc2cccc3c4c(c(C(=O)N5CCOCC5)cc23)CCC(C)(C)O4)cc1",
    "MIC [µg/mL]": 512
  },
  {
    "compound": "CC1(C)CCc2c(Cn3cnnn3)cc3c(OCc4ccc(OC(F)(F)F)cc4)cccc3c2O1",
    "MIC [µg/mL]": 1020
  }
]

Inquiry: Recorded MIC for CC1CN(C(=O)c2cc3c(OCc4ccc(Br)cc4)cccc3c3c2CCC(C)(C)O3)CC(C)O1 (centres undefined) , please?
Reply text: 1020

Inquiry: Recorded MIC for `CC1(C)CCc2c(C(=O)N3CCOCC3)cc3c(OCc4ccc(C(F)(F)F)cc4)cccc3c2O1` , please?
Reply text: 512

Inquiry: Recorded MIC for `CC1(C)CCc2c(C(=O)O)cc3c(OCc4ccccc4)cccc3c2O1` , please?
Reply text: 1020

Inquiry: Recorded MIC for `Cc1ccc(COc2cccc3c4c(c(-c5nnco5)cc23)CCC(C)(C)O4)cc1` , please?
Reply text: 512

----------
- system under test: Multidrug efflux pump subunit AcrB (Escherichia coli (strain K12))
- procedure details: Inhibition of AcrB in multidrug-resistant Escherichia coli BW25113 assessed as potentiation of tetraphenylphosphonium-induced antibacterial activity by measuring tetraphenylphosphonium MIC at 8 ug/ml by checkerboard titration method (reference value: 1024 ug/ml)
- run parameters: dose 8.0 µg/ml
measured endpoint: MIC (µg/mL)
Just the number in µg/mL, nothing appended.

[
  {
    "molecule": "COc1cccc(COc2cccc3c4c(c(-c5nnco5)cc23)CCC(C)(C)O4)c1",
    "MIC / µg/mL": 1020
  }
]

Inquiry: Recorded MIC for `CC1(C)CCc2c(C(=O)N3CCOCC3)cc3c(OCc4ccccc4)cccc3c2O1` , please?
Reply text: 512

Inquiry: Recorded MIC for `COc1cccc(COc2cccc3c4c(c(C(=O)O)cc23)CCC(C)(C)O4)c1` , please?
Reply text: 1020

Inquiry: Recorded MIC for `C=CC(=O)Nc1ccc(COc2cccc3c4c(c(Cn5cnnn5)cc23)CCC(C)(C)O4)cc1` , please?
Reply text: 1020

Inquiry: Recorded MIC for `COc1cccc(COc2cccc3c4c(c(C(=O)N5CCOCC5)cc23)CCC(C)(C)O4)c1` , please?
Reply text: 512

----------
inhibition at 100 µM values, listed per item
- procedure details: Cytotoxicity against human HepG2 cells assessed as growth inhibition at 100 uM relative to control
- Assay type: cell-based
- run parameters: read-out: GI
Just the number in %, nothing appended.

[
  {
    "chemical structure": "Cc1ccc(COc2cccc3c4c(c(-c5nnco5)cc23)CCC(C)(C)O4)cc1",
    "inhibition at 100 µM, %": 87
  }
]

// moving on: another record for inhibition at 100 µM
Inquiry: Recorded inhibition at 100 µM for `CC1(C)CCc2c(C(=O)N3CCOCC3)cc3c(OCc4ccccc4)cccc3c2O1` , please?
Reply text: 66

----------
- system under test: Multidrug efflux pump subunit AcrB (Escherichia coli (strain K12))
- procedure details: Inhibition of AcrB in multidrug-resistant Escherichia coli BW25113 assessed as potentiation of levofloxacin-induced antibacterial activity by measuring levofloxacin MIC at 16 ug/ml by checkerboard titration method (reference value: 0.06 ug/ml)
- run parameters: dose 16.0 µg/ml
measured endpoint: MIC

[
  {
    "compound": "CC(C)NCCOc1ccc2c(c1)OC(C)(C)CC2=O",
    "MIC": "0.03 µg/mL"
  },
  {
    "compound": "CC1CN(C(=O)c2cc3c(OCc4ccc(Br)cc4)cccc3c3c2CCC(C)(C)O3)CC(C)O1 (stereo not given)",
    "MIC": "0.06 µg/mL"
  },
  {
    "compound": "CC1(C)CCc2c(Cn3cnnn3)cc3c(OCc4ccccc4)cccc3c2O1",
    "MIC": "0.06 µg/mL"
  },
  {
    "compound": "CC1(C)CCc2c(Cn3cnnn3)cc3c(OCc4ccc([N+](=O)[O-])cc4)cccc3c2O1",
    "MIC": "0.06 µg/mL"
  },
  {
    "compound": "C=CC(=O)Nc1ccc(COc2cccc3c4c(c(Cn5cnnn5)cc23)CCC(C)(C)O4)cc1",
    "MIC": "0.06 µg/mL"
  }
]

Inquiry: Recorded MIC for `CC1(C)CCc2c(-c3nnco3)cc3c(OCc4ccc(C#N)cc4)cccc3c2O1` , please?
Reply text: 0.06 µg/mL

Inquiry: Recorded MIC for `CC1(C)CCc2c(-c3nnco3)cc3c(OCc4ccc(F)cc4)cccc3c2O1` , please?
Reply text: 0.06 µg/mL

Inquiry: Recorded MIC for `COc1cccc(COc2cccc3c4c(c(C(=O)N5CCOCC5)cc23)CCC(C)(C)O4)c1` , please?
Reply text: 0.06 µg/mL

Inquiry: Recorded MIC for `COc1cccc(COc2cccc3c4c(c(C(=O)O)cc23)CCC(C)(C)O4)c1` , please?
Reply text: 0.06 µg/mL

Inquiry: Recorded MIC for `Cc1ccc(COc2cccc3c4c(c(-c5nnco5)cc23)CCC(C)(C)O4)cc1` , please?
Reply text: 0.03 µg/mL
